# Tested on: NCI-H460 non-small cell carcinoma cells
# Measurement Description: Sulphorodamine B cytotoxicity test on NCI-H460 cells
# Assay type: cell-based
# Particulars: Homo sapiens, NCI-H460, Table 3; sensitive NCI-H460; SRB; read-out: IC50 ± SD, NCI-H460
pIC50: −log10 of the molar value.
Classification field: YES = pIC50 at or over 6; NO = pIC50 under 6.

{"Molecule": "COc1ccc(-c2ccc(/C=C/C(=O)NO)cc2)cc1C12CC3CC(CC(C3)C1)C2", "Label Value": "YES"}
{"Molecule": "O=C(O)c1ccc2cc(-c3ccc(O)c(C45CC6CC(CC(C6)C4)C5)c3)ccc2c1 [ST1964, reference compound]", "Label Value": "YES"}
{"Molecule": "O=C(/C=C/c1ccc(-c2ccc(O)c(C34CC5CC(CC(C5)C3)C4)c2)c(Cl)c1)NO", "Label Value": "NO"}
